# study.system: RBP4 (Mus musculus, UniProt Q00724)
# Construct: from tissue; host or cells: plasma of male C57BL/6J mice (Japan Charles River)
# measurement.description: Blood RBP4-lowering action in C57BL/6J mouse (plasma RBP4 by ELISA)
# Type: in vivo
# experimental.setup: male C57BL/6J mice, oral 5 mg/kg at 0 hr and again at 8 hr (daily dose 10 mg/kg), plasma 24 hr after initial administration; mean±SD, n=4 or 5
measured.quantity: RBP4 (initial value/control value %) 24 hr later

• O=C(O)CC(=O)N1CC[C@H](COc2ccccc2C2CCCC2)C1 = 56.02

A: O=C(O)CC(=O)N1CC[C@@H](COc2ccccc2C2CCCC2)C1
B: O=C(O)CC(=O)N1CC[C@H](COc2ccccc2C2CCCCC2)C1
Ask: Consider entries A and B . Which has the numerically lower RBP4 (initial value/control value %) 24 hr later? State your choice using its label.
Result: A

1: O=C(O)CC(=O)N1CC[C@H](COc2ccccc2C2(C(F)(F)F)CC2)C1
2: O=C(O)CC(=O)N1CCC(COc2ccccc2C2CCCC2)C1 (centres unmarked)
Ask: Choose between 1 and 2 : whose measured RBP4 (initial value/control value %) 24 hr later value is numerically larger? State your choice using its label.
Result: 2
